- measurementNotes: Biodistribution of ^111In-labeled peptides in B16-F1 melanoma-bearing mice
- Format: in vivo, mouse (B6D2F1)
- conditionParameters: female, B6D2F1, mouse, kidney, iv, total radioactivity; ^111In-labeled peptide, 185 kBq i.v., 24 h; mean ± SEM of three experiments, n = 5 animals each; read-out: Kidney uptake
Non-standard residues stand in square brackets, D forms with d. Residues, ends and D or L forms follow the SMILES beside them. *: point of attachment. DOTA = O=C(O)CN1CCN(CC(=O)O)CCN(CC(=O)*)CCN(CC(=O)O)CC1; pY = N[C@@H](Cc1ccc(OP(=O)(O)O)cc1)C(=O)O; Nle = CCCC[C@H](N)C(=O)O
Some compounds, each annotated with its measured tissue uptake at 24 h.
propertyName: tissue uptake at 24 h

1) CCCC[C@H](NC(C)=O)C(=O)N[C@@H](CC(=O)O)C(=O)N[C@@H](Cc1c[nH]cn1)C(=O)N[C@H](Cc1ccccc1)C(=O)N[C@@H](CCCNC(=N)N)C(=O)N[C@@H](Cc1c[nH]c2ccccc12)C(=O)NCC(=O)N[C@@H](CCCCNC(=O)CN1CCN(CC(=O)O)CCN(CC(=O)O)CCN(CC(=O)O)CC1)C(=O)N[C@H](CC(=O)O)C(=O)N[C@H](CC(=O)O)C(=O)O [DOTA-NAP-D-Asp-D-Asp] (Ac-[Nle]DH[dF]RWGK(DOTA)[dD][dD]-OH)	4.09 %ID/g
2) CCCC[C@H](NC(=O)[C@H](Cc1ccc(OP(=O)(O)O)cc1)NC(=O)CNC(=O)CN1CCN(CC(=O)O)CCN(CC(=O)O)CCN(CC(=O)O)CC1)C(=O)N[C@@H](CC(=O)O)C(=O)N[C@@H](Cc1c[nH]cn1)C(=O)N[C@H](Cc1ccccc1)C(=O)N[C@@H](CCCNC(=N)N)C(=O)N[C@@H](Cc1c[nH]c2ccccc12)C(N)=O [DOTA-Phospho-MSH2-9] ({DOTA}-G[pY][Nle]DH[dF]RW-NH2)	1.88 %ID/g
3) CCCC[C@H](NC(C)=O)C(=O)N[C@@H](CC(=O)O)C(=O)N[C@@H](Cc1c[nH]cn1)C(=O)N[C@H](Cc1ccccc1)C(=O)N[C@@H](CCCNC(=N)N)C(=O)N[C@@H](Cc1c[nH]c2ccccc12)C(=O)NCC(=O)N[C@@H](CCCCNC(=O)CN1CCN(CC(=O)O)CCN(CC(=O)O)CCN(CC(=O)O)CC1)C(N)=O [DOTA-NAP-amide, reference compound]	2.41 %ID/g

* * *

Recorded tissue uptake at 4 h by entry
- measurementNotes: Biodistribution of ^111In-labeled peptides in B16-F1 melanoma-bearing mice
- Format: in vivo, mouse (B6D2F1)
- conditionParameters: female, B6D2F1, mouse, lung, iv, total radioactivity; ^111In-labeled peptide, 185 kBq i.v., 4 h; mean ± SEM of three experiments, n = 5 animals each; read-out: Lung uptake
Non-standard residues stand in square brackets, D forms with d. Residues, ends and D or L forms follow the SMILES beside them. *: point of attachment. DOTA = O=C(O)CN1CCN(CC(=O)O)CCN(CC(=O)*)CCN(CC(=O)O)CC1; pY = N[C@@H](Cc1ccc(OP(=O)(O)O)cc1)C(=O)O; Nle = CCCC[C@H](N)C(=O)O
propertyName: tissue uptake at 4 h (%ID/g)

1) CCCC[C@H](NC(C)=O)C(=O)N[C@@H](CC(=O)O)C(=O)N[C@@H](Cc1c[nH]cn1)C(=O)N[C@H](Cc1ccccc1)C(=O)N[C@@H](CCCNC(=N)N)C(=O)N[C@@H](Cc1c[nH]c2ccccc12)C(=O)NCC(=O)N[C@@H](CCCCNC(=O)CN1CCN(CC(=O)O)CCN(CC(=O)O)CCN(CC(=O)O)CC1)C(=O)N[C@H](CC(=O)O)C(=O)N[C@H](CC(=O)O)C(=O)O [DOTA-NAP-D-Asp-D-Asp] (Ac-[Nle]DH[dF]RWGK(DOTA)[dD][dD]-OH)	0.06
2) CCCC[C@H](NC(C)=O)C(=O)N[C@@H](CC(=O)O)C(=O)N[C@@H](Cc1c[nH]cn1)C(=O)N[C@H](Cc1ccccc1)C(=O)N[C@@H](CCCNC(=N)N)C(=O)N[C@@H](Cc1c[nH]c2ccccc12)C(=O)NCC(=O)N[C@@H](CCCCNC(=O)CN1CCN(CC(=O)O)CCN(CC(=O)O)CCN(CC(=O)O)CC1)C(N)=O [DOTA-NAP-amide, reference compound]	0.08
3) CCCC[C@H](NC(=O)[C@H](Cc1ccc(OP(=O)(O)O)cc1)NC(=O)CNC(=O)CN1CCN(CC(=O)O)CCN(CC(=O)O)CCN(CC(=O)O)CC1)C(=O)N[C@@H](CC(=O)O)C(=O)N[C@@H](Cc1c[nH]cn1)C(=O)N[C@H](Cc1ccccc1)C(=O)N[C@@H](CCCNC(=N)N)C(=O)N[C@@H](Cc1c[nH]c2ccccc12)C(N)=O [DOTA-Phospho-MSH2-9] ({DOTA}-G[pY][Nle]DH[dF]RW-NH2)	0.07

Hello, the source for this data is paper PMC5405074, in case you need it.
